Biological target: human GOAT (Homo sapiens (Human), UniProt Q96T53)
Sequence (Q96T53 whole entry): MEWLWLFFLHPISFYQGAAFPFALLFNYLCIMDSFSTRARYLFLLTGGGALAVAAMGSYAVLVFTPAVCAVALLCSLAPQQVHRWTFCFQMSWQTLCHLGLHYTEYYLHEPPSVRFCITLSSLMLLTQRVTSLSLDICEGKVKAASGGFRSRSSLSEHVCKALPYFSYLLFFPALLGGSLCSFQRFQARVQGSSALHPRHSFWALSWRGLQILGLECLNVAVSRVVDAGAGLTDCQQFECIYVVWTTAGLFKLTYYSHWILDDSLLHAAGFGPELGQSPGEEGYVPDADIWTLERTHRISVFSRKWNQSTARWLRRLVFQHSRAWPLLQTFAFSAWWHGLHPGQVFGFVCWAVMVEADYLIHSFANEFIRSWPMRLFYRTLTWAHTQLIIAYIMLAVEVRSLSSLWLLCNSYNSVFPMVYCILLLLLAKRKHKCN
Assay: In vitro cell free human GOAT enzymatic assay
Settings: purified GOAT enzyme, ELISA readout of acyl-ghrelin
Satisfied if IC50 is below 300 nM. Not satisfied if not; exact matches included in Not satisfied.

Q. Criterion: IC50 strictly below 300 nM. Is it met by `Cc1nc(C(F)(F)F)nc(N)c1CCC1CCN(C(=O)[C@H](C)NC(=O)c2ccnn2C)CC1` ?
A. Satisfied

----------
Answer each item with its documented pIC50.
Molecular target: UniProtKB Q96T53
Test: In vitro cell free human GOAT enzymatic assay
Conditions: purified GOAT enzyme, ELISA readout of acyl-ghrelin
Numbers only, as −log10 of the molar value.

>  <Molecule>
COc1ccccc1C(=O)N[C@@H](C)C(=O)N1CCC(CCc2c(C)nc(C(F)(F)F)nc2N)CC1 [Example 17]

>  <pIC50>
6.38

$$$$
>  <Molecule>
COC(=O)N[C@@H](C)C(=O)N1CCC(CCc2c(C)nc(C(F)(F)F)nc2N)CC1 [Example 20]

>  <pIC50>
6.21

$$$$

Kindly give each listed record's pIC50.
1. Cc1nc(C(F)(F)F)nc(N)c1CCC1CCN(C(=O)[C@H](C)NC(=O)CO)CC1 [Example 18]
2. Cc1nc(C(F)(F)F)nc(N)c1CCC1CCN(C(=O)[C@H](C)NC(=O)c2nccnc2Cl)CC1 [Example 15]

A.
1: 6.56; 2: 7.25
